Recorded EC50 values for a group of binders are listed next.
tested.on: T1, recombinant cynomolgus CD3e (22-49)-Fc2(K105-K330) (cynomolgus monkey)
T1 construct: also called cyCD3e(22-49)_Fc2(K105-K330); cyCD3 epsilon 22-49/Fc
protocol.text: ELISA, 1 nM antigen coated, IgG titrated, anti-human F(ab')2-AP detection
Output spec: scalar in nM, unitless text.

binder | EC50 [nM]
mAb#Bremen (antibody, human IgG1, lambda, V domains shown) VH: EVQLVESGGGLVKPGGSLRLSCAASGFTFNTYAMNWVRQAPGKGLEWVGRIRSKYNNYATYYADSVKDRFTISRDDSKNTLYLQMNSLKTEDTAVYYCTTHGNFGNSYVSWFAYWGQGTLVTVSS VL: QTVVTQEPSLTVSPGGTVTLTCRSSTGAVTTSNYANWVQQKPGQAPRGLIGGTKFLAPGTPARFSGSLLGGKAALTLSGVQPEDEAEYYCALWYSNLWVFGGGTKLTVLG | 0.8

EC50 lookup needed for SP34 (m/h chimeric) IgG (antibody, V domains shown, Murine SP34 variable domains tested as mouse/human chimeric IgG; also called SP34 IgG (m/h chimera)) VH: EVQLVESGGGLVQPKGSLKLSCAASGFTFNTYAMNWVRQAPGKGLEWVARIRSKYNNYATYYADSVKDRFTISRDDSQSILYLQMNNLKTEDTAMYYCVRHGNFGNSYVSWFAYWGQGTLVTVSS VL: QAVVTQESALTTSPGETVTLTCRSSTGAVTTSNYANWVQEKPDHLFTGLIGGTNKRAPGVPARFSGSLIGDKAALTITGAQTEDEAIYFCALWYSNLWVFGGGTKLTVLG , thanks.
0.15

Looking for the measured EC50 of mAb#Mainz (antibody, human IgG1, lambda, V domains shown) VH: QVQLVESGGGLVKPGGSLRLSCAASGFTFNTYAMNWIRQAPGKGLEWVSRIRSKYNNYATYYADSVKDRFTISRDNAKNSLYLQMNSLRAEDTAVYYCVRHGNFGNSYVSWFAYWGQGTLVTVSS VL: QAVVTQEPSLTVSPGGTVTLTCRSSTGAVTTSNYANWVQQKPGQAPRGLIGGTNKRAPWTPARFSGSLLGGKAALTITGAQAEDEADYYCALWYSNLWVFGGGTKLTVLG , can you help?
1.53
